Target: protein tyrosine phosphatase-1B (PTP-1B) (Homo sapiens, UniProt P18031)
Construct: purchased Bioneer, Korea
Sequence (P18031 whole entry): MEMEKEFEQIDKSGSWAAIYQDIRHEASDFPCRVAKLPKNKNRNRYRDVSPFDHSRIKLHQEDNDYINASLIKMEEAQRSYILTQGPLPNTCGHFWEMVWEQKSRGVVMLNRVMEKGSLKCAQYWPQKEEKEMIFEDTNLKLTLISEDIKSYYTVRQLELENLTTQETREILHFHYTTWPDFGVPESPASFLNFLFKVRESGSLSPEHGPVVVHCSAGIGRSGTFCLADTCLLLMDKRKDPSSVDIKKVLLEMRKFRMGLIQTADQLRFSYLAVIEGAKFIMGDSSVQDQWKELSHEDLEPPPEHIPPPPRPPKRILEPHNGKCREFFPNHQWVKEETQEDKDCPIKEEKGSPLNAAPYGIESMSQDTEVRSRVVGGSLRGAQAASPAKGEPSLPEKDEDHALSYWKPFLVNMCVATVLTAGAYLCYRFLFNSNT
Assay: PTP-1B inhibitory activity, enzyme activity measured spectroscopically with pNPP substrate
Format: biochemical
Settings: 0.5 μg/mL PTP-1B, pNPP, room temperature 30 minutes, absorbance 405 nm
measured_parameter: IC50 (nM)
Supply the numeric figure in nM, leaving out any unit text.

Q. Sample CCCCCc1c(Oc2cc(OC)cc(C(=O)CCCC)c2C(=O)N(C)C)c(O)cc(O)c1C(=O)O [dimethyl lobamide] — what was its IC50?
A. 2.16
